- Species on record: Homo sapiens
- Experiment Description: Inhibition of collagen-induced human platelet aggregation.
- Assay type: functional
Documented IC50 across a set of substances
Value Kind: IC50 (µM)

INSERT INTO results (substance, value_kind, observed_result) VALUES
  ('H-FSRGDW-OH', 'IC50', 23),
  ('H-WSRGDW-OH', 'IC50', 6.8),
  ('Ac-PSRGDW-OH', 'IC50', 50);
